Measured LIPASE values are reported for all entries that follow.
species on record: Rattus norvegicus; test: DrugMatrix - Regimen: Daily Repeat; assay type: toxicity, organism-based, Sprague-Dawley; design: regimen Daily Repeat, gender Male, age 6-8 weeks; details: in vivo, po, 0 mg/kg, 72 h, tissue Plasma, route oral GAVAGE, dose level Control, time 3 day, […]
Respond with the bare value in u/L.

For orientation, consider the following solved cases.
                                   molecule  readout  measured_value
0  CSc1ccc2c(c1)N(CCC1CCCCN1C)c1ccccc1S2 (stereo unspecified)   LIPASE            9.33
1  COCc1c(C(C)C)nc(C(C)C)c(/C=C/[C@@H](O)C[C@@H](O)CC(=O)O)c1-c1ccc(F)cc1   LIPASE           10.67
2                                     C=CCN   LIPASE           13.33
3       Oc1c(Cl)cc(Cl)cc1Sc1cc(Cl)cc(Cl)c1O   LIPASE            9.83
4  CC1=C(/C=C/C(C)=C/C=C/C(C)=C\C(=O)O)C(C)(C)CCC1   LIPASE              11

Field: next molecule
(Q) Name the reported LIPASE value associated with the molecule COc1ccc2c(c1)c(CC(=O)OCC(=O)O)c(C)n2C(=O)c1ccc(Cl)cc1
(A) 9.5

* * *

Measured CREATININE values are reported for all entries that follow.
species: Rattus norvegicus; assay: DrugMatrix - Regimen: Daily Repeat; type: toxicity, organism-based, Sprague-Dawley; set-up: regimen Daily Repeat, gender Male, age 6-8 weeks; conditions: in vivo, po, 0 mg/kg, 120 h, tissue Plasma, route oral GAVAGE, dose level Control, time 5 day, […]
Respond with the bare value in mg/dL.

For orientation, consider the following solved cases.
                                   compound  measured_value
0       Oc1c(Cl)cc(Cl)cc1Sc1cc(Cl)cc(Cl)c1O            0.21
1  COC1=CC(=O)C[C@@H](C)[C@]12Oc1c(Cl)c(OC)cc(OC)c1C2=O             0.2
2       O=[N+]([O-])c1cc([As](=O)(O)O)ccc1O            0.18
3                                     C=CCN            0.47
4  CC(C)n1c(/C=C/C(O)CC(O)CC(=O)O)c(-c2ccc(F)cc2)c2ccccc21 (stereo not given)            0.21
5  CN(C)CCCC1(c2ccc(F)cc2)OCc2cc(C#N)ccc21 (stereo not given)             0.2

(Q) Name the reported CREATININE value associated with the compound COc1ccc2c(c1)c(CC(=O)OCC(=O)O)c(C)n2C(=O)c1ccc(Cl)cc1
(A) 0.2

(Q) Name the reported CREATININE value associated with the compound CC1=C(/C=C/C(C)=C/C=C/C(C)=C\C(=O)O)C(C)(C)CCC1
(A) 0.18

(Q) Name the reported CREATININE value associated with the compound CC(=O)[C@H]1CC[C@H]2[C@@H]3CCC4=CC(=O)CC[C@]4(C)[C@H]3CC[C@]12C
(A) 0.2
